Hey, just so you know, these numbers are from patent US20140303084A1.

Target: human Factor IXa (human, UniProt P00740 47-191; P00740 227-461)
Assay: cell-based or functional assay
Square brackets hold non-standard residues; d marks the D form. Primed or numbered codes have the meaning given here. Ends that are not written are not given here. Dap = NC[C@H](N)C(=O)O; PEG4′ = PEG4 spacer; Sar = CNCC(=O)O

{"columns": ["Binder", "EC50 [µM], FXa generation assay"],
 "data": [
  ["LQLSYGEQRQSRAPGKLTCLASYCWLFWTGIA [LQLSYGEQRQ SRAPG KLTCLASYCWLFWTGIA]", "< 0.5 µM"],
  ["KLTCLASYCQLV", "< 0.5 µM"],
  ["KLTELASY[Dap]WLF (not fully specified; printed as KLT-Glu-LASY-Dap-WLF) [KLT-Glu-LASY-Dap-WLF]", "< 0.5 µM"],
  ["C(N‑PEG5kmaleimide)[PEG4′]LVPR[PEG4′][dR]RAPGKLTCLASYCWLFWTGIA (cysteine pairing not given here) [C(N-PEG5kmaleimide)-PEG4-LVPR-PEG4-rRAPGKLTCLASYCWLFWTGIA]", "> 1 µM"],
  ["RRAPGKLTDLASYKWLFWTGIA-OH [RRAPGKLT-Asp-LASY-Lys-WLFWTGIA-COOH]", "< 0.5 µM"],
  ["RRAPGKLQCLASYCWLFWTGIK", "> 1 µM"],
  ["RRAP[Sar]KLTCLASYCWLFWTGIA (not fully specified; printed as RRAP-Sar-KLTCLASYCWLFWTGIA; cysteine pairing not given here) [RRAP-Sar-KLTCLASYCWLFWTGIA]", "< 0.5 µM"],
  ["GSCRDQLTCLSSDRWQFFRRVS", "> 20 µM"],
  ["PRIRTVGPGSRSASGKLTCLASYCWLFWTSIA", "< 0.5 µM"],
  ["PQTRDPSSRDRRAPGKLTCLASYCWLFWTGIA [PQTRDPSSRD RRAPG KLTCLASYCWLFWTGIA]", "< 0.5 µM"],
  ["GASSDKLTCRTRHCSMFQPLSV", "> 20 µM"],
  ["RRAPGKLQCLASYCWLFATAIA", "< 0.5 µM"],
  ["SRQSDKPTCLAISCSLLTSNVR", "> 50 µM"]
]}
